# measurement notes: Cell Viability - LYMP2-018 (AID 985);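 note: compound exposure lasted 24 hr at 37 °C; nearly all actives have a fitted effect of over 50% in size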
# protocol conditions: LYMP2-018 lymphoblastoid cells, viability (qHTS); series mostly up to 92.2 µM
# Description: NIH Chemical Genomics Center [NCGC] NIH Molecular Libraries Screening Centers Network [MLSCN] National Institutes of Environmental Health Sciences [NIEHS] National Toxicology Program [NTP] We have developed a 1536-well cell-based assay for quantitative high throughput screening (qHTS) against a number of cell lines to determine in vitro cytotoxicity of small molecules. […] 8. Detection; Luminescence; Viewlux plate reader […]
Records with an inconclusive call do not appear. The source made the active and inactive calls. Calls come from the whole dose curve; as a rule, active = well fitted cell-killing curve with a large enough effect; inconclusive = small, poorly fitted or top-dose-only effect; inactive = flat fitted curve, though single readings scatter.
Return exactly one item of active, inactive

Use these answered entries as a reference point.
[
  {
    "smiles text": "Oc1ccccc1-c1ccccc1",
    "classification": "inactive"
  },
  {
    "smiles text": "CC(=O)Oc1ccccc1C(=O)Nc1ncc([N+](=O)[O-])s1",
    "classification": "active"
  }
]

Below: the item to evaluate.
(Q) Status in this test for N[C@@H](Cc1ccc(N(CCCl)CCCl)cc1)C(=O)O ?
(A) active
